biological target: MaxL homodimer (Homo sapiens, UniProt P61244 1-160); test: universal protein-binding microarray (PBM); PBS-based mixture, 10 nM His-tagged protein dimer, 2% milk, 200 ng/uL BSA, 50 ng/uL salmon testes DNA, 0.02% TX-100; detection with Alexa 488 anti-His antibody;; high values mean tight binding; conditions: protein: recombinant; tags: C-terminal His-tag (pET21a); chain copies: 2; dsDNA, one strand shown;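 further: fluorescence intensity normalized to that of the highest-ranked 8-mer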
Sequence (P61244 whole entry): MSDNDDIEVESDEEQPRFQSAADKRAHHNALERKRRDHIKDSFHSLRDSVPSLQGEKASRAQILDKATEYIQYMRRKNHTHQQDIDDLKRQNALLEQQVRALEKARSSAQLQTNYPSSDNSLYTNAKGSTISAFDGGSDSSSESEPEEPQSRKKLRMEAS
Whole data set: some 33,000 sequences, median “normalized occupancy” near 0.075, cut for the highest 2% near 0.095. Only a selection was taken, and the highest values are over-represented in it overall.
// reported binding signal for each item listed
QUANTITY: binding signal (normalized occupancy)

[[record]]
ordered_residues = "CATGTACC"
numeric_readout = 0.0843

[[record]]
ordered_residues = "AACGTGGT"
numeric_readout = 0.125

[[record]]
ordered_residues = "AACGTAGC"
numeric_readout = 0.0749

[[record]]
ordered_residues = "ATGAAGCG"
numeric_readout = 0.0749

[[record]]
ordered_residues = "AACGTGGC"
numeric_readout = 0.107

[[record]]
ordered_residues = "GCTATACA"
numeric_readout = 0.0815

[[record]]
ordered_residues = "AGCATACT"
numeric_readout = 0.0804

[[record]]
ordered_residues = "CCACCGAA"
numeric_readout = 0.0733

[[record]]
ordered_residues = "GACGTGGC"
numeric_readout = 0.0846

[[record]]
ordered_residues = "GATGACTA"
numeric_readout = 0.0757

[[record]]
ordered_residues = "AGATACAC"
numeric_readout = 0.0831

[[record]]
ordered_residues = "CTAAGGTC"
numeric_readout = 0.0732

[[record]]
ordered_residues = "CCCGTCCC"
numeric_readout = 0.0747

[[record]]
ordered_residues = "ACAGAAGA"
numeric_readout = 0.0734

[[record]]
ordered_residues = "CTAGCTCA"
numeric_readout = 0.0759

[[record]]
ordered_residues = "GTTCGTAA"
numeric_readout = 0.0774

[[record]]
ordered_residues = "GGCATCAC"
numeric_readout = 0.0813

[[record]]
ordered_residues = "AAGCTACG"
numeric_readout = 0.0726

[[record]]
ordered_residues = "CGATTTCA"
numeric_readout = 0.072

[[record]]
ordered_residues = "AGTTTGAA"
numeric_readout = 0.0729

[[record]]
ordered_residues = "TCAGGCAA"
numeric_readout = 0.0718

[[record]]
ordered_residues = "ACTCACAT"
numeric_readout = 0.0886


All values here come from paper PMC4242493.
